tested-system: Serine/threonine-protein kinase Nek6 (Homo sapiens) (UniProt Q9HC98)
Sequence (Q9HC98 whole entry): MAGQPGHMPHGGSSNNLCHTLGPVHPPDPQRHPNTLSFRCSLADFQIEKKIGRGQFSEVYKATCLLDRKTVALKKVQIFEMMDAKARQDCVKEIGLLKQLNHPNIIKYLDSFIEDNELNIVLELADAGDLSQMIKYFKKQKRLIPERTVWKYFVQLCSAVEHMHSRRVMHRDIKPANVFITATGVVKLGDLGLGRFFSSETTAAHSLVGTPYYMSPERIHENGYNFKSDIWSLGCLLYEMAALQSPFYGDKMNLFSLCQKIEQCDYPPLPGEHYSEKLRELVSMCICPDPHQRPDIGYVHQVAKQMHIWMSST
condition: at 10 µM
Description: Millipore: Percentage of residual kinase activity of NEK6 at 10uM relative to control. Control inhibitor: Phosphoric acid* at 0.3uM. Buffer: 8 mM MOPS pH 7.0, 0.2 mM EDTA
quantity-name: residual activity (%)
Write the answer as a number in %, unit excluded.

Past entries and their recorded results:
CC(C)(C)c1cc(C=C(C#N)C#N)cc(Br)c1O
118
CCn1cnc2c(Nc3cccc(Cl)c3)nc(N[C@@H]3CCCC[C@@H]3N)nc21
126
COc1cc2ncnc(Nc3ccc(OCc4ccccc4)cc3)c2cc1OC
94
CCc1nc(-c2ccc(OC)cc2)[nH]c1-c1ccncc1
117
COc1ccc2c(c[n+](C)c3c4cc5c(cc4ccc23)OCO5)c1OC
68
O=c1[nH]c2ccccc2n1C1CCN(Cc2ccc(-c3nc4cc5[nH]cnc5cc4nc3-c3ccccc3)cc2)CC1
116
COC(=O)[C@@]1(O)C[C@H]2O[C@]1(C)n1c3ccccc3c3c4c(c5c6ccccc6n2c5c31)C(=O)NC4
120

From here, focus on the item given below.
[in] // fetch Serine/threonine-protein kinase Nek6 (Homo sapiens) (UniProt Q9HC98) residual activity for C[S+]([O-])c1ccc(-c2nc(-c3ccc(F)cc3)c(-c3ccncc3)[nH]2)cc1 (stereo not drawn)
[out] 103
